- Organism: Homo sapiens
- run description: Liver toxicity in human assessed as induction of drug-induced liver injury by measuring verified drug-induced liver injury concern status
experimental readout: DILI_Concern

Worked set:
>>> recorded_measurement("NC(=O)c1cnccn1 [PYRAZINAMIDE]")
"Less-Dili-Concern"
>>> recorded_measurement("CC[C@H]1OC(=O)[C@H](C)[C@@H](O[C@H]2C[C@@](C)(OC)[C@@H](O)[C@H](C)O2)[C@H](C)[C@@H](O[C@@H]2O[C@H](C)C[C@H](N(C)C)[C@H]2O)[C@](C)(OC)C[C@@H](C)C(=O)[C@H](C)[C@@H](O)[C@]1(C)O")
"Most-Dili-Concern"
>>> recorded_measurement("C1N2CN3CN1CN(C2)C3.O=C(O)CNC(=O)c1ccccc1 [METHENAMINE HIPPURATE]")
"Ambiguous-Dili-Concern"
>>> recorded_measurement("CCOC(Nc1ccc(C(=O)O)cc1)C(=O)c1ccc(-c2ccccc2)cc1 (stereo not drawn)")
"Most-Dili-Concern"
>>> recorded_measurement("CCC[C@@H]1C[C@@H](C(=O)N[C@@H]([C@H]2O[C@H](SC)[C@H](O)[C@@H](O)[C@H]2O)[C@H](C)Cl)N(C)C1")
"Less-Dili-Concern"

Q: Fill in: DILI_Concern of CCCCc1oc2ccc(NS(C)(=O)=O)cc2c1C(=O)c1ccc(OCCCN(CCCC)CCCC)cc1 is ___
Result: Most-Dili-Concern

Q: Field request: DILI_Concern | item: CN1CC[C@]23CCCC[C@H]2[C@H]1Cc1ccc(O)cc13
Result: No-Dili-Concern
